tested on: MDA-MB-231; assay: Cytotoxicity against human MDA-MB-231 cells assessed as inhibition of cell proliferation measured after 72 hrs by MTT assay; format: functional, cell-based; conditions: MDA-MB-231, 72 h
READOUT: pIC50
Note on units: pIC50 is unitless, being -log10 of a concentration expressed in mol/L.

The measured pIC50 associated with `COCC/C(=N\S(=O)(=O)Cc1ccc(Cl)cc1)Nc1ccc(Oc2ccnc3cc(OCCCN4CCOCC4)c(OC)cc23)c(F)c1` reads 6.14

The measured pIC50 associated with `COCC/C(=N\S(=O)(=O)Cc1ccc(Cl)c(Cl)c1)Nc1ccc(Oc2ccnc3cc(OCCCN4CCC(C)CC4)c(OC)cc23)c(F)c1` reads 5.70

The measured pIC50 associated with `COCC/C(=N\S(=O)(=O)Cc1ccc(Cl)cc1)Nc1ccc(Oc2ccnc3cc(OC)c(OC)cc23)c(F)c1` reads 5.63

The measured pIC50 associated with `COCC/C(=N\S(=O)(=O)Cc1ccc(C)cc1)Nc1ccc(Oc2ccnc3cc(OC)c(OC)cc23)c(F)c1` reads 4.86

The measured pIC50 associated with `COCC/C(=N\S(=O)(=O)Cc1ccc(Cl)c(Cl)c1)Nc1ccc(Oc2ccnc3cc(OCCCN4CCOCC4)c(OC)cc23)c(F)c1` reads 5.98

src = ChEMBL document CHEMBL4765349
